- test.protocol: Drug repurposing screens with cells derived from glioblastoma tumor samples (AID 1345199); further: nearly all actives have a fitted effect of over 40% in size; further: potency means the concentration at half of the fitted maximal effect
- measurement.conditions: GBM patient neurospheres viability, ATP luminescence, 48 h; tumour line A
Inconclusive results are not listed. Calls of active or inactive are those of the source. The call rests on the fitted dose curve; in most records, active means well fitted inhibition curve with a large enough effect; inconclusive means small, poorly fitted or top-dose-only effect; inactive means flat fitted curve, though single readings scatter.
Exercise: for every item that follows, state its recorded Potency.

Given item O=C(/C=C/c1ccc(O)c(O)c1)O[C@@H]1C[C@@](OC(=O)/C=C/c2ccc(O)c(O)c2)(C(=O)O)C[C@@H](O)[C@@H]1O , the value recorded as its Potency is 28.2 µM (active)

Lab book: Potency of CN(C/C=C/C#CC(C)(C)C)Cc1cccc2ccccc12 noted as 20 µM (active)

The value of Potency measured for the compound O=C1c2cccc(O)c2C(=O)c2c(O)cccc21 turned out to be 11.2 µM (active)

---

- test.protocol: Drug repurposing screens with cells derived from glioblastoma tumor samples (AID 1345199); further: nearly all actives have a fitted effect of over 40% in size; on activity, negative = cell killing: on the % scale 0 is the no-effect control and ±100 the full control effect
- measurement.conditions: GBM patient neurospheres viability, ATP luminescence, 48 h; at 21.2 µM (top of the series); tumour line B
Inconclusive results are not listed.
endpoint.name: activity, negative = cell killing (%)
Hi! Could you send only the number? It should be in %, unit omitted.

activity, negative = cell killing reported for this compound C=CCOc1ccccc1OCC(O)CNC(C)C (centres undefined) : 1.37

activity, negative = cell killing for CN/C(=C\[N+](=O)[O-])NCCSCc1csc(CN(C)C)n1 is 0.685

For this compound ( C[N+]1(C)CCCC(OC(=O)C(O)(c2ccccc2)c2ccccc2)C1 (centres undefined) ), measured activity, negative = cell killing is -7.65

Looking up C[C@@H]1CCC[C@H](C)N1 , I found its activity, negative = cell killing recorded as -3.64

---

- Test system: GB4
- test.protocol: qHTS profiling for inhibitors of Plasmodium falciparum proliferation (AID 504749); further: nearly all actives have a fitted effect of over 60% in size
- measurement.conditions: P. falciparum in erythrocytes, SYBR Green DNA, 72 h; series mostly up to 28.7 µM
- Experimental: NIH National Institute of Allergy and Infectious Diseases [NIAID] NIH Chemical Genomics Center [NCGC] […] Because mature erythrocytes lack DNA, only Plasmodium-derived DNA is detected. NCGC Assay Protocol Summary: The SYBR Green viability assay was adapted from a method described previously (Plouffe et al., 2008). […] The following morning, fluorescence intensity at 485(14) nm excitation and 535(25) nm emission wavelengths was measured on an EnVision (Perkin Elmer) plate reader. […]
Results filed as inconclusive are left out. Calls of active or inactive are those of the source. Calls follow the shape of the dose curve; as a rule, active = well fitted inhibition curve with a large enough effect; inconclusive = small, poorly fitted or top-dose-only effect; inactive = flat fitted curve, though single readings scatter.
Return exactly one item of active, inactive

Task item: Dear all, I need the recorded test outcome for CC(C)C[C@@H](N)C(=O)O , thank you.
Reply: inactive

Task item: # outcome recorded in this test, key = OCC(O)CS (centres undefined)
Reply: inactive

Task item: Lab log entry: CCOC(N)=O — outcome as called in the assay?
Reply: inactive

Task item: Hi, do you know how COc1nccnc1NS(=O)(=O)c1ccc(N)cc1 came out in this test?
Reply: inactive

Task item: Which outcome was assigned to Nc1c2c(nc3c1CCC3)CCCC2 in this test?
Reply: active

Task item: Record request — test call for Cc1c(I)c(=O)n(-c2ccccc2)n1C
Reply: inactive

Task item: For O=C(O)Cc1ccc(CCNS(=O)(=O)c2ccc(Cl)cc2)cc1 , which call appears in the assay record?
Reply: inactive

Task item: Outcome logged for COc1ccccc1OC(=O)Oc1ccccc1OC in this assay:
Reply: inactive

Task item: Would you mind telling me which call this test gave CC1CCN(CCCC(=O)c2ccc(F)cc2)CC1 ?
Reply: inactive
